- Tested on: SK-MEL-2
- Test details: NCI tumour cell line growth inhibition, 48 h
Calls of active or inactive are those of the source. No stated cut-off is given here; in the data, active = GI50 up to about 1.1 µM and inactive = higher.
// values below are reported GI50

- Compound: "CSc1n[nH]c2c1c(C)nn2-c1ccccc1"
  GI50: "> 100 µM (inactive)"
- Compound: "COC(=O)C1=NC(=S)NC(c2ccccc2)C1c1nc2ccccc2s1 (stereo unspecified)"
  GI50: "> 100 µM (inactive)"
- Compound: "O=C(Oc1ccc2c(c1)CN(Cc1ccccc1)CO2)c1ccccc1"
  GI50: "22 µM (inactive)"
- Compound: "CO[C@@H](C(=O)OC1C=CC2(CC1)C(=O)N(C)c1ccccc12)c1ccccc1 (stereo partly specified)"
  GI50: "> 100 µM (inactive)"
- Compound: "Cc1ccc(S(=O)(=O)Nn2c(-c3ccccc3)c(C#N)c(-c3ccc(Cl)cc3)c(C#N)c2=O)cc1"
  GI50: "20.2 µM (inactive)"

Next compound, GI50 to be filled in.
Value of GI50 reported for the compound Cn1cc2c3ccccc3nc-2c2ccccc21 [ISOCRYPTOLEPINE] is 1.91 µM (inactive)

====

- Test system: EKVX
- Test details: NCI tumour cell line growth inhibition, 48 h
Active and inactive are the calls of the source. No stated cut-off is given here; in the data, active = GI50 up to about 1.1 µM and inactive = higher. *1 amine or outer side, *2 acyl side, *3 side chain or, on linkers, in order; H or OH if unused. Where a SMILES comes first, the peptide text is derived from it. Bridges are numbered along the chain shown (N, C = ends). Roman numbers before positions name the chains, in order. [ ]: non-standard residue; d: D form. Actinocin(9to1) = Cc1c2oc3c(C)ccc(C(=O)[*:1])c3nc-2c(C(=O)[*:2])c(N)c1=O; Hyp = O=C(O)[CH]1C[CH](O)CN1; NMeV = CN[CH](C(=O)O)C(C)C; Sar = CNCC(=O)O
# valid calls are active, inactive; nothing else

These solved cases illustrate the format of a correct answer.
- Molecule: "COC(=O)/C(=C/c1ccc(OC)cc1)C(C(=O)O)=C1CCCC1"
  Target or system: "EKVX"
  Classification: "inactive"
- Molecule: "OCCCCCCCCCCCOc1ccc(C2OCC3(CO2)COC(c2ccc(OCCCCCCCCCCCO)cc2)OC3)cc1 (configuration not stated)"
  Target or system: "EKVX"
  Classification: "inactive"
- Molecule: "O=C1CSC(c2ccccc2[N+](=O)[O-])N1c1ccc(-c2ccc(-n3c(-c4ccccc4)nc4ccccc4c3=O)cc2)cc1 (configuration not stated)"
  Target or system: "EKVX"
  Classification: "inactive"

Answer briefly: the call reported for COc1ccccc1NC(=O)CC(=O)n1nc(C)c(/N=N/c2ccccc2Cl)c1C in this assay.
inactive

Could you please tell me the result logged for O=c1n(CC2CS2)c2ccccc2n1CC1CS1 (configuration not stated) in this assay?
inactive

Could you please tell me the result logged for Cc1c2oc3c(C)ccc(C(=O)NC4C(=O)NC(C(C)C)C(=O)N5CC(O)CC5C(=O)N(C)CC(=O)N(C)C(C(C)C)C(=O)OC4C)c3nc-2c(C(=O)NC2C(=O)NC(C(C)C)C(=O)N3CC(O)CC3C(=O)N(C)CC(=O)N(C)C(C(C)C)C(=O)OC2C)c(N)c1=O (configuration not stated) (I: TV[Hyp][Sar][NMeV] / II: TV[Hyp][Sar][NMeV]; ester I:1-I:C, II:1-II:C; linker I:N-II:N via Actinocin(9to1); configuration not given here) in this assay?
active

Kindly provide the recorded test outcome for the following molecule: CC1=C2C(=O)c3ccccc3C(=O)[C@H]2C[C@@H](N2CCCCCC2=O)O1
inactive
